# Test system: cancer cell lines from the cancer cell line encyclopedia (CCLE)
# Assay: Cell line profiling (CLiP) proliferation experiment
# Assay type: cell-based
# Condition Label: Homo sapiens, DOHH-2, cell line DOHH-2, haematopoietic_and_lymphoid_tissue; read-out: Inflection Point
Assay Metric: pEC50
Entry type: numeric. Quantity: pEC50, the -log10 of concentration in molar units.

Identify the measured pEC50 of CC(C)[C@@]12C[C@@H](O)[C@@](C)(O1)[C@@H]1CC[C@@H](C)[C@H]1[C@@H]2OC(=O)/C=C/c1ccccc1 [Englerin B] for cancer cell lines from the cancer cell line encyclopedia (CCLE).
4.89

---

# Test system: cancer cell lines from the cancer cell line encyclopedia (CCLE)
# Assay: Cell line profiling (CLiP) proliferation experiment
# Type: cell-based
# Condition Label: Homo sapiens, CAL-120, cell line CAL-120; breast; NS; read-out: Inflection Point
Assay Metric: EC50 (µM)
Give your result in µM as a bare value.

I am curious: what EC50 value has been reported for CC(C)[C@@]12C[C@@H](O)[C@@](C)(O1)[C@@H]1CC[C@@H](C)[C@H]1[C@@H]2OC(=O)/C=C/c1ccccc1 ?
11.6

Value source: paper PMC4476799
